Each item that follows carries a reported TP.
# Species on record: Rattus norvegicus
# TEST: Open TG-GATES - Regimen: Daily Repeat
# Type: toxicity, organism-based, Sprague-Dawley
# Design: regimen Daily Repeat, gender Male, age 6 weeks
# PROTOCOL CONDITIONS: in vivo, po, 0 mg/kg, 72 h, tissue Plasma, route gavage, dose level Control, time 3 day
PARAMETER: TP (g/dL)

- COMPOUND: "CN(C)CCN(Cc1cccs1)c1ccccn1"
  PARAMETER: "TP"
  EXPERIMENTAL RESULT: 5.6
- COMPOUND: "CN1C(=O)CN=C(c2ccccc2)c2cc(Cl)ccc21"
  PARAMETER: "TP"
  EXPERIMENTAL RESULT: 6
- COMPOUND: "O=C(CCCN1CCC(O)(c2ccc(Cl)cc2)CC1)c1ccc(F)cc1"
  PARAMETER: "TP"
  EXPERIMENTAL RESULT: 6
- COMPOUND: "CCCNC(=O)NS(=O)(=O)c1ccc(Cl)cc1 [CHLORPROPAMIDE]"
  PARAMETER: "TP"
  EXPERIMENTAL RESULT: 5.8
- COMPOUND: "CC(C)OC(=O)C(C)(C)Oc1ccc(C(=O)c2ccc(Cl)cc2)cc1 [FENOFIBRATE]"
  PARAMETER: "TP"
  EXPERIMENTAL RESULT: 5.6

---

Each item that follows carries a reported RBC.
# Species: Rattus norvegicus
# TEST: Open TG-GATES - Regimen: Single
# Assay type: toxicity, organism-based, Sprague-Dawley
# Parameters: regimen Single, gender Male, age 6 weeks
# PROTOCOL CONDITIONS: in vivo, po, 1000 mg/kg, 24 h, tissue Blood, route gavage, dose level High
PARAMETER: RBC (x10_4/ul)

- COMPOUND: "NC(N)=Nc1nc(CSCCC(N)=NS(N)(=O)=O)cs1 [FAMOTIDINE]"
  VALUE UNITS: "x10_4/ul"
  EXPERIMENTAL RESULT: 612.2
- COMPOUND: "COc1ccc2[nH]c([S+]([O-])Cc3ncc(C)c(OC)c3C)nc2c1 (stereo not given) [OMEPRAZOLE]"
  VALUE UNITS: "x10_4/ul"
  EXPERIMENTAL RESULT: 613.8
- COMPOUND: "COC1=CC(=O)C[C@@H](C)[C@]12Oc1c(Cl)c(OC)cc(OC)c1C2=O [GRISEOFULVIN]"
  VALUE UNITS: "x10_4/ul"
  EXPERIMENTAL RESULT: 600.4
- COMPOUND: "CCOC(=O)CCC(=O)O[C@H]1[C@H](O[C@@H]2[C@@H](C)[C@H](O[C@H]3C[C@@](C)(OC)[C@@H](O)[C@H](C)O3)[C@@H](C)C(=O)O[C@H](CC)[C@@](C)(O)[C@H](O)[C@@H](C)C(=O)[C@H](C)C[C@@]2(C)O)O[C@H](C)C[C@@H]1N(C)C [ERYTHROMYCIN ETHYLSUCCINATE]"
  VALUE UNITS: "x10_4/ul"
  EXPERIMENTAL RESULT: 666
- COMPOUND: "CC(C)OC(=O)C(C)(C)Oc1ccc(C(=O)c2ccc(Cl)cc2)cc1 [FENOFIBRATE]"
  VALUE UNITS: "x10_4/ul"
  EXPERIMENTAL RESULT: 603.8
